- TGT: SARS-CoV-2 3CL-protease (Severe acute respiratory syndrome coronavirus 2 (2019-nCoV) (SARS-CoV-2), UniProt P0DTD1)
pIC50: −log10 of the molar value.
METRIC: pIC50

INSERT INTO results (compound, result_value) VALUES
  ('CC(C)(C)C[C@H](NC(=O)[C@H](Cc1ccc(F)cc1)NC(=O)C(F)(F)F)C(=O)N1C[C@]2(C[C@H]1C#N)C(=O)Nc1ccccc12', '> 7.00'),
  ('CC(C)(C)C(NS(=O)(=O)c1ccccc1)C(=O)N1CCC[C@H]1C(=O)N1C[C@]2(C[C@H]1C#N)C(=O)Nc1ccccc12 (stereo partly drawn)', '< 6.00'),
  ('CN(C(=O)[C@H](CC1CC1)NC(=O)c1ccc(OC2CC2)c(OC2CC2)c1)[C@@H](CC(C)(C)C)C(=O)N1C[C@]2(C[C@H]1C#N)C(=O)Nc1ccccc12', '> 7.00'),
  ('CC(C)[C@@H](NC(=O)OC(C)(C)C)C(=O)N(C)[C@@H](Cc1ccccc1)C(=O)N1C[C@]2(C[C@H]1C#N)C(=O)Nc1ccccc12', '> 7.00'),
  ('CC(C)C[C@@H](C(=O)N1C[C@]2(C[C@H]1C#N)C(=O)Nc1ccccc12)N(C)C(=O)[C@H](Cc1ccc(F)cc1)NC(=O)C(F)(F)F', '> 7.00'),
  ('CN(C(=O)[C@H](CC1CC1)NC(=O)N1CCOCC1)[C@@H](CC(C)(C)C)C(=O)N1C[C@]2(C[C@H]1C#N)C(=O)Nc1ccccc12', '> 7.00'),
  ('CN(C(=O)[C@@H](N)C(C)(C)C)[C@@H](Cc1ccccc1)C(=O)N1C[C@]2(C[C@H]1C#N)C(=O)Nc1ccccc12', '> 7.00'),
  ('CC(C)[C@H](NC(=O)OCC1(c2ccccc2)CC1)C(=O)N(C)[C@@H](CC(C)(C)C)C(=O)N1C[C@]2(C[C@H]1C#N)C(=O)Nc1ccccc12', '> 7.00'),
  ('CC(C)[C@H](NC(=O)OC(C)(C)C)C(=O)N(C)[C@@H](Cc1ccccc1)C(=O)N1C[C@]2(C[C@H]1C#N)C(=O)Nc1ccccc12', '> 7.00'),
  ('CC(=O)N[C@@H](CC1CC1)C(=O)N(C)[C@@H](CC(C)C)C(=O)N1C[C@]2(C[C@H]1C#N)C(=O)Nc1ccccc12', '> 7.00'),
  ('CN(C(=O)[C@H](Cc1ccc(F)cc1)NC(=O)N1CCOCC1)[C@@H](CC(C)(C)C)C(=O)N1C[C@]2(C[C@H]1C#N)C(=O)Nc1ccccc12', '> 7.00'),
  ('CC(C)[C@@H](NC(=O)C(F)(F)F)C(=O)N[C@@H](CC(C)(C)C)C(=O)N1C[C@]2(C[C@H]1C#N)C(=O)Nc1ccccc12', '6.00 to 7.00');
